# measuredTarget: 5-hydroxytryptamine receptor 1A (Homo sapiens); further: assay procedure not described here
# Sequence (P08908 whole entry): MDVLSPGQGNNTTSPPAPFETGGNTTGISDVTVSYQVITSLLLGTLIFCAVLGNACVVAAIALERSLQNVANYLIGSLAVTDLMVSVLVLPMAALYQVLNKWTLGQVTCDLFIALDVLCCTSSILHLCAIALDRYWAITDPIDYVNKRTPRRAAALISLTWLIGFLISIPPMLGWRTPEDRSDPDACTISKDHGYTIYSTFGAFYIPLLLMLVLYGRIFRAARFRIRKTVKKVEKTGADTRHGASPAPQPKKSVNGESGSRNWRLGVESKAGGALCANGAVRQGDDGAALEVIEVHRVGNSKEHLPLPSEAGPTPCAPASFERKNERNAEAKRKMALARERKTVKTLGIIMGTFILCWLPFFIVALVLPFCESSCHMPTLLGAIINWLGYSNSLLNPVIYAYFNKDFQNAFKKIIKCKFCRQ
# Format: functional, cell-based
measuredQuantity: AC50

Documented AC50 of CCC(=O)O[C@H]1CC[C@H]2[C@@H]3CCC4=CC(=O)CC[C@]4(C)[C@H]3CC[C@]12C [TESTOSTERONE PROPIONATE] : > 10 µM

AC50 in this record for C=CCNc1nc(NCC=C)nc(N2CCN(C(c3ccc(F)cc3)c3ccc(F)cc3)CC2)n1 [ALMITRINE] : > 30 µM

Notebook: COc1ccc(-c2noc(CC(=O)O)c2-c2ccc(OC)cc2)cc1 [MOFEZOLAC] , AC50 read as > 30 µM

// AC50 value for COc1ccccc1Oc1c(NS(=O)(=O)c2ccc(C(C)(C)C)cc2)nc(-c2ncccn2)nc1OCCO [BOSENTAN] : > 10 µM

Reported AC50 for C/N=C(\NC)NCc1ccccc1 [BETHANIDINE] was > 30 µM

# AC50 of C/C(=C\C(=O)OCCCCCCCCC(=O)O)C[C@@H]1OC[C@H](C[C@@H]2O[C@H]2[C@@H](C)[C@H](C)O)[C@@H](O)[C@H]1O [MUPIROCIN] = > 10 µM

get_value(item= O=C(O)CCNC(=O)c1ccccc1 [BETAMIPRON] , readout=AC50) returns > 30 µM

CCOC(=O)c1cncn1[C@H](C)c1ccccc1 [ETOMIDATE] yielded AC50 of > 10 µM
